# assay system: Sigma non-opioid intracellular receptor 1 (Homo sapiens, UniProt Q99720)
# Sequence (Q99720 whole entry): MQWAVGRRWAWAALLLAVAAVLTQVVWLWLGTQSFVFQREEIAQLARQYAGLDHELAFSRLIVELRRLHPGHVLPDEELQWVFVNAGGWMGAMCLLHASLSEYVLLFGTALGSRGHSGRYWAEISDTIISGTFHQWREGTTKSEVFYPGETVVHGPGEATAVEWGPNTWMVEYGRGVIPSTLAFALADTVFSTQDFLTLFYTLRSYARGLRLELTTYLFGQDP
# experiment summary: DRUGMATRIX: Sigma1 radioligand binding (ligand: [3H] Haloperidol)
# Assay type: cell membranes, Jurkat, Membrane
# condition summary: Not Active = under 50% inhibition at 10 µM; read-out: Ki
Please respond with reported pKi for every item in the list.
On this scale, pKi is minus log10 of a concentration expressed in M (mol/L).

// returns reported pKi for input CN(C)C(=O)C(CCN1CCC(O)(c2ccc(Cl)cc2)CC1)(c1ccccc1)c1ccccc1 [LOPERAMIDE] 6.58

// returns reported pKi for input OCCOCCN1CCN(C2=Nc3ccccc3Sc3ccccc32)CC1 6.02

// returns reported pKi for input CN1CCCC(CN2c3ccccc3Sc3ccccc32)C1 (configuration not stated) 7.12

// returns reported pKi for input CN(C)CCC=C1c2ccccc2CCc2ccccc21 6.36

// returns reported pKi for input CC(C)NC[C@H](O)COc1cccc2ccccc12 5.55

// returns reported pKi for input CCCCCCCCNC(C)C(O)c1ccc(SC(C)C)cc1 (configuration not stated) 7.31

// returns reported pKi for input CC(C)NC[C@@H](O)COc1cccc2ccccc12 5.78

---

# assay system: Aldo-keto reductase family 1 member B1 (Rattus norvegicus, UniProt P07943); note: in other assays of this panel Not Active means under 50% inhibition at 10 µM;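 note: inhibition of aldose reductase enzyme activity, measured with DL-glyceraldehyde as the substrate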
# experiment summary: biochemical
# Type: tissue-based, Lens of camera-type eye
# condition summary: read-out: IC50
measured property: IC50 (µM)
Quick note: give the figure in µM, leave out the unit.

// returns reported IC50 for input O=c1c(-c2ccc(O)cc2)coc2cc(O)cc(O)c12 45

// returns reported IC50 for input CCc1ccc(CCOc2ccc(CC3SC(=O)NC3=O)cc2)nc1 (centres undefined) 13.2

// returns reported IC50 for input O=C(O)COc1ccc(C(=O)c2cccs2)c(Cl)c1Cl 3.21

// returns reported IC50 for input Cc1ccc(C(=O)c2ccc(CC(=O)O)n2C)cc1 2.15

---

# experiment summary: DRUGMATRIX: ATPase, Na+/K+ enzyme inhibition (substrate: ATP)
# Type: tissue-based, Sus scrofa, Heart
# condition summary: Not Active = under 50% inhibition at 10 µM
measured property: IC50

COLISTIN
Not Active
TRANSPLATIN
Not Active
ZIRCONIUM(IV) CHLORIDE
Not Active
COBALTOUS CHLORIDE
Not Active

---

# assay system: Mu-type opioid receptor (Homo sapiens, UniProt P35372)
# Sequence (P35372 whole entry): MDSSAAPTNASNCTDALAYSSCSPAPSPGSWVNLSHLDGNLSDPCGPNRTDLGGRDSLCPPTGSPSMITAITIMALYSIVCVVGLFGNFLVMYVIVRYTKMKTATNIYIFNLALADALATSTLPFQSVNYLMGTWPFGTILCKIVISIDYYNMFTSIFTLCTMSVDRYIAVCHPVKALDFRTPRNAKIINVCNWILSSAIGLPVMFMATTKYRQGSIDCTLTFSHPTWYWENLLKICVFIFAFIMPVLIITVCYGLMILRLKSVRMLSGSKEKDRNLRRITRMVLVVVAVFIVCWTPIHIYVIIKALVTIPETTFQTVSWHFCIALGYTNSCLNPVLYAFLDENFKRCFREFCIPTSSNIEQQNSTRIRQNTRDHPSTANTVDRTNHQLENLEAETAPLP
# experiment summary: DRUGMATRIX: Opiate mu (OP3, MOP) radioligand binding (ligand: [3H] Diprenorphine)
# Type: cell membranes, CHO-K1, Membrane
# condition summary: cho-k1; Not Active = under 50% inhibition at 10 µM
measured property: IC50

Some entries whose results are on file:
COc1ccccc1N
Not Active
CN(C)C(=N)NC(=N)N
Not Active
CCCCCCCCNC(C)C(O)c1ccc(SC(C)C)cc1 (stereo not given)
Not Active
C[C@@H]1C/C=C/C=C/C=C/C=C/[C@H](O[C@@H]2O[C@H](C)[C@@H](O)[C@H](N)[C@@H]2O)C[C@@H]2O[C@](O)(C[C@@H](O)C[C@H]3O[C@@H]3/C=C/C(=O)O1)C[C@H](O)[C@H]2C(=O)O
Not Active
O=c1[nH]c(=O)n(C2CCCO2)cc1F (stereo not given)
Not Active

Find the measured IC50: item NC12CC3CC(CC(C3)C1)C2 , target or system Mu-type opioid receptor (Homo sapiens, UniProt P35372). Not Active

Find the measured IC50: item CC[C@]1(O)C[C@@H]2CN(CCc3c([nH]c4ccccc34)[C@@](C(=O)OC)(c3cc4c(cc3OC)N(C)[C@H]3[C@@](O)(C(N)=O)[C@H](O)[C@]5(CC)C=CCN6CC[C@]43[C@@H]65)C2)C1 , target or system Mu-type opioid receptor (Homo sapiens, UniProt P35372). Not Active

Find the measured IC50: item Nc1ccc(S(=O)(=O)NC(=O)c2ccccc2)cc1 [SULFABENZAMIDE] , target or system Mu-type opioid receptor (Homo sapiens, UniProt P35372). Not Active
